- Experiment: chemical genetic growth profiling, strain panel (AID 1159580);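 also: tested at 20 µM; growth read once vehicle control cultures reached saturation at 30 °C; 1 = growth at the plate median or of vehicle wells; lower values mean less growth of the strain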
- Cond: S. cerevisiae deletion strains, growth OD, locus YPR135W, strain CTF4, active compounds read low
The whole screen tested about 5,500 compounds, of which about 2,000 (36%) were called active. About 18% were inconclusive and are not listed. This is one part of the list.
normalized growth: recorded values
Number only, please.

Reference set, count: 5
O=C(Nc1ccccc1SCc1cccc(C(F)(F)F)c1)c1c(F)cccc1Cl :: 0.942
Cc1cc(Br)c(OCC(=O)NN)c2c1CCC2 :: 0.906
CC(C)(C)C(=O)N1CCN(c2ncccc2C(F)(F)F)CC1 :: 0.787
Clc1cccc(-c2csc(Nc3cccnc3)n2)c1 :: 0.884
Cc1ccc(OCC(=O)NN)c2c1CCC2 :: 0.982

# input for lookup
Ask: Requested read-out: normalized growth. Entry: O=C(NNC(=O)c1ccccc1[N+](=O)[O-])c1ccc(Cl)cc1
Reply: 1.16

====

- Experiment: chemical genetic growth profiling, strain panel (AID 1159580);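 also: tested at 20 µM; growth read once vehicle control cultures reached saturation at 30 °C; 1 = growth at the plate median or of vehicle wells; lower values mean less growth of the strain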
- Cond: S. cerevisiae deletion strains, growth OD, locus YNL307C, strain MCK1
The campaign covered roughly 5,500 compounds. About 2,000 (36%) were called active. Another 18% or so got no clear call; they are omitted. Rule as the data show it: active = normalized growth mostly below about 0.91 (no sharp cut-off); inconclusive = no clear call, values can overlap the other calls; inactive = mostly above about 0.92. Some of the results follow.
The categories you may choose from are active, inactive

COc1cccc(-c2cc(=O)c3cc(OC)ccc3o2)c1 :: active

Ask: Given CC(=O)O[C@H]1C[C@@H](O)C(C)(C)C2C[C@@H](OC(C)=O)[C@]3(C)C(CC[C@@]4(C)[C@H](c5ccoc5)OC(=O)C5OC543)[C@]21C (stereo partly drawn) , state the outcome it received in this test.
Reply: inactive

Ask: Repeat with CC(=O)O[C@@H]1CC2C(C)(C)C(=O)CC[C@]2(C)C2CC[C@@]3(C)[C@H](c4ccoc4)OC(=O)C4OC43[C@@]21C (stereo partly drawn)
Reply: inactive

Ask: Try this compound too: COc1ccc(-c2cc(=O)c3cc(OC)ccc3o2)cc1
Reply: inactive

Ask: Moving on to the next compound: CC(=O)OC1CC2C(C)(C)CCCC2(C)C2CCC3(C)C(c4ccoc4)OC(=O)C4OC43C12C (stereo not drawn)
Reply: inactive

Ask: One more compound: COc1cc([C@@H]2c3cc4c(cc3C(O[C@@H]3O[C@@H]5CO[C@@H](c6cccs6)OC5[C@H](O)[C@H]3O)C3COC(=O)[C@@H]32)OCO4)cc(OC)c1O (stereo partly drawn)
Reply: inactive

Ask: Let us now turn to N[C@@H]1CONC1=O
Reply: inactive

Ask: Here is the next compound: CC(=O)O[C@H]1C[C@H](O[C@H]2[C@@H](O)C[C@H](O[C@H]3[C@@H](O)C[C@H](O[C@H]4CC[C@@]5(C)C(CCC6C5C[C@@H](O)[C@]5(C)[C@@H](C7=CC(=O)OC7)CC[C@]65O)C4)O[C@@H]3C)O[C@@H]2C)O[C@H](C)[C@H]1O[C@@H]1O[C@H](CO)[C@@H](O)[C@H](O)[C@H]1O (stereo partly drawn)
Reply: inactive

====

- Experiment: chemical genetic growth profiling, strain panel (AID 1159580);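 also: tested at 20 µM; growth read once vehicle control cultures reached saturation at 30 °C; 1 = growth at the plate median or of vehicle wells; lower values mean less growth of the strain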
- Cond: S. cerevisiae deletion strains, growth OD, locus YHR087W, strain rtc3, active compounds read low
In all, about 5,500 compounds went through this assay and about 2,000 (36%) were called active. Not shown: some 18% with an inconclusive outcome. Some of the results follow.
Overview of recorded normalized growth for various molecules
The reply should be a number, written without any unit.

Ask: # input molecule: Cc1ccc(OCC(=O)NN)c2c1CCC2 ; wanted: its normalized growth
Reply: 1.04

Ask: And then CC(C)(C)OC(=O)NC1CCN(C(=O)c2ccc(Cl)cc2Cl)CC1 , what is it?
Reply: 0.996

Ask: What would you report for CCCCCCCCCCc1ccc(-c2ccccc2)cc1 ?
Reply: 1.09

Ask: Entry COC(=O)c1ccc(Cl)cc1N(Cc1ccccc1)S(C)(=O)=O please
Reply: 1

Ask: Same for CC(=O)c1csc(-c2ccc(C(F)(F)F)cc2)n1
Reply: 0.964

Ask: Can you handle Cc1c(C)c(C)c(CO)c(C)c1C next?
Reply: 1.01

Ask: What would you report for CN1CNc2c(c(=O)n(C)c(=O)n2C)C1 ?
Reply: 0.988
